- experimental system: human CD28 (human, UniProt P10747 19-220, On cells CD28 is a disulfide linked homodimer and a glycoprotein; one copy of the chain is given.)
- Sequence (P10747 19-220 limits assumed): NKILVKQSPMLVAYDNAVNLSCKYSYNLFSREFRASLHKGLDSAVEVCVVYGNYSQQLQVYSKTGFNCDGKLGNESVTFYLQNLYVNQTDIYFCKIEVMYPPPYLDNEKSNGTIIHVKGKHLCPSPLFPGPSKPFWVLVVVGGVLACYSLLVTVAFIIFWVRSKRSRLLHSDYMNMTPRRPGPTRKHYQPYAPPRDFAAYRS
- measurement description: cell-based or functional assay
Kindly state Percent Divided (CFSE T cell division, no anti-CD3) for each of the entries shown.
Form entry: value (%) — number only.

[Q] I'd like to know its Percent Divided (CFSE T cell division, no anti-CD3). The binder in question is exemplary anti-CD28 antibody AB4 (antibody, V domains shown, Mouse hybridoma monoclonal antibody; Conjugated to PE in the staining assays; also called antibody 4; clone 4) VH: EVQLQQSGPELEKPGASVKMSCKASGYSFTDYNMNWVKQSNGKSLEWIGIIDPYYGATTYNQRFKGKATLTVDKSSSTAYMQLKSLTSEDSAVYYCARFGFYGAMDYWGQGISVTVSS VL: DIQMTQSPASLSVSVGETVTITCRASENIYSNLAWYQQKQGKSPQLLVYAATKLADGVPSRFSGSGSGTQYSLRINSLQSEDFGSYYCQHFWGTPWTFGGGTKLEIK
[A] 0.0091

[Q] I'd like to know its Percent Divided (CFSE T cell division, no anti-CD3). The binder in question is exemplary anti-CD28 antibody AB1 (antibody, V domains shown, Mouse hybridoma monoclonal antibody; also called antibody 1; clone 1) VH: QVHLQQSATELARPGASVKMSCKASGYTFTSYTMHWVKQRPGQGLEWIGYIDPGSGYSEFNHKFKDKSTLTADKSSSTAYMQLISLTSEDSAVYYCARRQDNSGYDSFDYWGQGTTLTVSS VL: DIQMTQSPASLSVSVGETVTITCRTSENIYSNLAWYQQKQGKSPQLLVYAATNLADGVSSRFSGSGSGIQYSLKINSLQSEDFGSYYCQHFWGIPWTFGGGTKLEIK
[A] 0.58

[Q] I'd like to know its Percent Divided (CFSE T cell division, no anti-CD3). The binder in question is exemplary anti-CD28 antibody AB7 (antibody, V domains shown, Mouse hybridoma monoclonal antibody; Conjugated to PE in the staining assays; also called antibody 7; clone 7) VH: KVQLQQSGAGLVKPGASVKLSCKASGYTFSDYIINWVKQRSGQGLEWIGWFYPGSGSINYNEKFKDKATLTADKSSSTVYMDLSRLTSEDSAVYFCARREDRGGYDAFDYWGQGTTLTVSS VL: DIQMTQSPASLSVSVGETVTITCRTSENIYSNLAWYQQKQGKSPQLLVYAATKLADGVPSRFSGSGSGTQYSLRINSLQPEDFGSYYCQHFWGTPWTFGGGTKLEIK
[A] 0.47

[Q] I'd like to know its Percent Divided (CFSE T cell division, no anti-CD3). The binder in question is exemplary anti-CD28 antibody AB6 (antibody, V domains shown, Mouse hybridoma monoclonal antibody; Conjugated to PE in the staining assays; also called antibody 6; clone 6) VH: KVQLQQSGAGLVKPGASVKLSCKTSGYTFSDYIINWVKQRSGQGLEWIGWFYPGSGSINYNEKFKDKATLTADKSSSTVYMDLSRLTSEDSAVYFCARREDRGGYDAFDYWGQGTTLTVSS VL: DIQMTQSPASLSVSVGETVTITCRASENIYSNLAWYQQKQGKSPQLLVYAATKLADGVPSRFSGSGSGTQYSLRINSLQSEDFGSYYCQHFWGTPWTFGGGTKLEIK
[A] 0.33

[Q] I'd like to know its Percent Divided (CFSE T cell division, no anti-CD3). The binder in question is exemplary anti-CD28 antibody AB8 (antibody, V domains shown, Mouse hybridoma monoclonal antibody; Conjugated to PE in the staining assays; also called antibody 8; clone 8) VH: EVKLVESGGGLVQPGGSLKLSCAASGFTFSSYTMSWVRQTPEKRLEWVAYISNGGGTTYYPDTVKGRFTISRDNAKNTLYLQMSSLKSEDTAVYYCARHRPYDYDVLDYWGQGTTLTVSS VL: DIVMTQSQKFMSTSVGDRVSITCKASQIVGTDVAWYQQKPGQSPKILIFSASNRYTGVPDRFTGSGSGTDFTLTISNMQSEDLADYFCHQYSRYPYTFGGGTKLEIK
[A] 30.7

[Q] I'd like to know its Percent Divided (CFSE T cell division, no anti-CD3). The binder in question is exemplary anti-CD28 antibody AB3 (antibody, V domains shown, Mouse hybridoma monoclonal antibody; Conjugated to PE in the staining assays; also called antibody 3; clone 3) VH: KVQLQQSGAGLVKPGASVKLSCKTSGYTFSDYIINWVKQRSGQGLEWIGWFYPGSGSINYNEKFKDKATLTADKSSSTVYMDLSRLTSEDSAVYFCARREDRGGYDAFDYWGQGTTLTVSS VL: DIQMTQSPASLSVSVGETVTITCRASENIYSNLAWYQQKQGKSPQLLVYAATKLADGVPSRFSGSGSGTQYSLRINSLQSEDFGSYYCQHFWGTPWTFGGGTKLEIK
[A] 0.32

[Q] I'd like to know its Percent Divided (CFSE T cell division, no anti-CD3). The binder in question is exemplary anti-CD28 antibody AB5 (antibody, V domains shown, Mouse hybridoma monoclonal antibody; Conjugated to PE in the staining assays; also called antibody 5; clone 5) VH: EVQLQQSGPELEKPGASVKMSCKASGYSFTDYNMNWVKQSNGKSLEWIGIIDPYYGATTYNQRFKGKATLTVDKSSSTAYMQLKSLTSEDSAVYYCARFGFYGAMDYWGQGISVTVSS VL: DVVVTQTPLSLPVSFGDQVSISCRSSQSLANSFGNTYLSWYLHKPGQSPQLLIYGISNRFSGVPDRFSGSGSGTDFTLKISTIKPEDLGVYYCLQGTHQPFTFGSGTTLELK
[A] 0.64

[Q] I'd like to know its Percent Divided (CFSE T cell division, no anti-CD3). The binder in question is exemplary anti-CD28 antibody AB2 (antibody, V domains shown, Mouse hybridoma monoclonal antibody; also called antibody 2; clone 2) VH: QVQLQQPGSELMRPGASVKLSCKASGYTFTSYWMHWVKQRHGQGLEWIGNIYPGSGRTIYDEKFKSKATLTVDTSSSTAYMHLSSLTSEDSAVFYCTRSHYGSSFDAMDYWGQGTSVTVSS VL: DIQVNQSPSSLSASLGDTITITCHASQNIYVWLNWYQQKPGNIPKLLIYKASNLHTGVPSRFSGSGSGTGFTLTISSLQPEDIATYYCQQGQSYPWTFGGGTKLEIK
[A] 65.4
